Target: human ether-à-go-go-related gene (hERG) potassium channel (human, UniProt Q12809);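 note: peak tail current of the secondary pulse compared with the same well before compound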
Sequence (Q12809 whole entry, looked up): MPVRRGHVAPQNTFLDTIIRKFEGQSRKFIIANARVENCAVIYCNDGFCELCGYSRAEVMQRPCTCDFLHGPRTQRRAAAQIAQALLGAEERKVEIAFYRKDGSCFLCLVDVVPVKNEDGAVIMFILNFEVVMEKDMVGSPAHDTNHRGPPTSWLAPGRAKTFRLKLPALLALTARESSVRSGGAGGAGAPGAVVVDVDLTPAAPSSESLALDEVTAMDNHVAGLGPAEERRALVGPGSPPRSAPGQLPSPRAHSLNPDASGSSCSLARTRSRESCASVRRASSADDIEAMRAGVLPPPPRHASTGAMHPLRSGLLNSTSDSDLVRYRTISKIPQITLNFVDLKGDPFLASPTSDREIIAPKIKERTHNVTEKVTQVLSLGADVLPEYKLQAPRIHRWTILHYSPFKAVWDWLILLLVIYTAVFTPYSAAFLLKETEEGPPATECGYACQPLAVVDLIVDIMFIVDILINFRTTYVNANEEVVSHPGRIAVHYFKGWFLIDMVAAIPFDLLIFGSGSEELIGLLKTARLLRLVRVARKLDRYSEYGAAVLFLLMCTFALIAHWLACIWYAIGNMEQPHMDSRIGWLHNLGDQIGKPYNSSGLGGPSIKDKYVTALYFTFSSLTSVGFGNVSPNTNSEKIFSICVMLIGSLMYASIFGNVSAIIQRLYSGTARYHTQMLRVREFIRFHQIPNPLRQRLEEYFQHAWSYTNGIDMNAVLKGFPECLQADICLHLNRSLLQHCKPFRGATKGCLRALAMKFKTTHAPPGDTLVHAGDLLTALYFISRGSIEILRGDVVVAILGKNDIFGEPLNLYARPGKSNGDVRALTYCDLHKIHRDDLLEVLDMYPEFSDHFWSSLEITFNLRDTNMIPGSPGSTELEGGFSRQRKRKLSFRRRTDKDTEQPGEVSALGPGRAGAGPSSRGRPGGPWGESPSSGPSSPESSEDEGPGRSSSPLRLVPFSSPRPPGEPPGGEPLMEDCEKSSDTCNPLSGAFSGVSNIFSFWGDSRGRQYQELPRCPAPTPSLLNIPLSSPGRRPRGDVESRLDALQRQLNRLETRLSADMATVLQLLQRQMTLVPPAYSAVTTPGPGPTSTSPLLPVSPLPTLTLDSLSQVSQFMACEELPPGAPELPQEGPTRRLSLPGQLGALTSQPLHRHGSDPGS
Test: primary screen, population patch clamp on CHO cells stably expressing hERG; higher = less effect of the substance
In all, about 310,000 compounds went through this assay and about 14,000 (4.5%) showed an effect of 50% or more. The effect is printed as a negative number. What follows is part of a selection rich in strong results, with near analogues and random picks from the rest.
# thresholds on hERG current change (%, negative = inhibition) at 10uM define classes: class 0 = under -60%, class 1 = from -60% up to -20%, class 2 = -20% and over

Here's what some known entries look like.
compound=CCN(CC)C(=O)C1CCN(Cc2cccc(OCc3ccccc3)c2)CC1.O=C(O)C(=O)O class_assignment="class 1"
compound="CSc1ccc(C(=O)C2CCCN(C)C2)cc1 (centres unmarked)" class_assignment="class 1"
compound=CCCCN(C)C(=O)C1CCN(Cc2ccc(OCc3ccccc3)cc2)CC1.O=C(O)C(=O)O class_assignment="class 0"
compound=CCCCN(C)C(=O)C1CCN(Cc2cccc(OCc3ccccc3)c2)CC1.O=C(O)C(=O)O class_assignment="class 0"
compound=CC(C)(C)C(=O)NC(=S)Nc1cc(C(=O)O)ccc1Cl class_assignment="class 2"
compound="CSc1ccc(C(=O)C2CCCN(C(=O)c3nn(C)c(=O)c4ccccc34)C2)cc1 (centres unmarked)" class_assignment="class 0"
compound="O=C(c1ccc(-c2ccccc2)cc1)C1CCCN(Cc2ccncc2)C1 (centres unmarked)" class_assignment="class 0"
compound=NC(=O)C1CCN(Cc2ccc(OCc3ccccc3)cc2)CC1.O=C(O)C(=O)O class_assignment="class 1"

Query string: Which category fits this record: O=C(c1ccc(-c2ccccc2)cc1)C1CCCN(C(=O)c2ccncc2)C1 (centres unmarked)
Result string: class 2

Query string: Similarly, O=C(c1cnccn1)N1CCN(C/C=C/c2ccccc2)CC1 ?
Result string: class 2

Query string: Similarly, CSc1ccc(C(=O)C2CCCN(C(=O)c3cc(C)n(C)n3)C2)cc1 (centres unmarked) ?
Result string: class 2

Query string: Similarly, NC(=O)c1nn(Cc2ccccc2)c(=O)c2ccccc12 ?
Result string: class 2

Query string: Similarly, CC(=O)NC(=S)Nc1cc(C(=O)O)ccc1Cl ?
Result string: class 0
